# study system: Homo sapiens GSK-3β (Homo sapiens, UniProt P49841)
# Construct: purchased MRC Protein Phosphorylation & Ubiquitylation Unit, University of Dundee (screening service)
# Sequence (P49841 whole entry): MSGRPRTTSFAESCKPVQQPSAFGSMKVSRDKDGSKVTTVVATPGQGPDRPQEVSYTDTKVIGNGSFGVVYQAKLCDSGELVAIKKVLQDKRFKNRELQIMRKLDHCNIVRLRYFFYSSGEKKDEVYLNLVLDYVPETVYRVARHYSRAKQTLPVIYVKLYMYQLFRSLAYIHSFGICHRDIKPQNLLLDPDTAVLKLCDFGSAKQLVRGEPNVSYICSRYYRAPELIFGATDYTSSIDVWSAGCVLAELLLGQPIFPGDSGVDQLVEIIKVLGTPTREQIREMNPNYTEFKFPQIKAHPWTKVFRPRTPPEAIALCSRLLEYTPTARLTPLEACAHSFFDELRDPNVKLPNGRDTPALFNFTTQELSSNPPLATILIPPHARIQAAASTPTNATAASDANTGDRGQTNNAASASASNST
# measurement protocol: in vitro GSK-3β binding assay (kinase inhibition, MRC PPU Dundee)
# Format: biochemical
# assay conditions: single concentration 50 µM
reported property: inhibition at 50 µM (%)

• Cc1coc2cc3oc(=O)c(CC(=O)N[C@H]4CCCc5c4[nH]c4ccccc54)c(C)c3cc12 [Compound 7] = 10
• COc1ccc(Cn2cnc3c([nH]c4ccccc43)c2=O)cc1OC [Compound 9] = 9
• Cc1ccc2c(c1)[C@]1(N[C@@H]([C@@H](C)O)[C@H]3C(=O)N(Cc4ccc5c(c4)OCO5)C(=O)[C@H]31)C(=O)N2 [Compound 10] = 6

###

Let's go through some pIC50 measurements on Homo sapiens GSK-3β (Homo sapiens, UniProt P49841) together.
pIC50: −log10 of the molar value.
reported property: pIC50

- COc1ccc([C@@H]2CC(=O)Nc3cccc4c3c2cn4Cc2ccccc2)c(OC)c1 [Compound 4]: 4.06
- COc1cccc2c1cc1c3c(cc4c(c32)OCO4)C(=O)N1 [Compound 3]: 4.20
- COc1ccc(Nc2c3c4c(c(Br)ccc4n(C)c2=O)C(=O)c2ccccc2-3)cc1 [Compound 17]: 4.85
- COc1ccccc1Nc1c2c3c(cccc3n(C)c1=O)C(=O)c1ccccc1-2 [Compound 16]: 4.57
- Cn1c(=O)c(NCCO)c2c3c(cccc31)C(=O)c1ccccc1-2 [Compound 21]: 4.77

###

# study system: PKBβ (Homo sapiens)
# Sequence (P31751 whole entry, species assumed): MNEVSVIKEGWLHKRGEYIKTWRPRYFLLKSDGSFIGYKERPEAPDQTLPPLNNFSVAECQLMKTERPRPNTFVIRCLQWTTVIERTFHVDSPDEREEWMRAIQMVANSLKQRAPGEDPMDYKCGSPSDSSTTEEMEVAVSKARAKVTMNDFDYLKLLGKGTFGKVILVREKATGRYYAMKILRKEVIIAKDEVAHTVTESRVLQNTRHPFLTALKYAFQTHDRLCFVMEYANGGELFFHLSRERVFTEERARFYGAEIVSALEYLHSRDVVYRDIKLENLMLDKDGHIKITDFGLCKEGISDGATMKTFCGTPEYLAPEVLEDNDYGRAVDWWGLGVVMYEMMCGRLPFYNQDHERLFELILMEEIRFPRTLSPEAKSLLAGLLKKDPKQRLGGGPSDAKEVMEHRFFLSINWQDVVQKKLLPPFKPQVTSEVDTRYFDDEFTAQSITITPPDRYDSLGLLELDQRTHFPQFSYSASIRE
reported property: IC50 (µM)

* CCCCNc1c2c3c(cccc3[nH]c1=O)C(=O)c1ccccc1-2 [Compound 19] | 24.6

###

# study system: PKCγ (Homo sapiens)
reported property: IC50 (µM)

- CCCCNc1c2c3c(cccc3[nH]c1=O)C(=O)c1ccccc1-2: 11

###

# study system: Homo sapiens GSK-3β (Homo sapiens, UniProt P49841)
# Construct: purchased MRC Protein Phosphorylation & Ubiquitylation Unit, University of Dundee (screening service)
# measurement protocol: in vitro GSK-3β binding assay (kinase inhibition, MRC PPU Dundee)
# Type: biochemical
# assay conditions: single concentration 50 µM
reported property: inhibition at 50 µM

* O=C1N/C(=C/c2ccccc2)C(=O)N2Cc3ccccc3C[C@@H]12 | 10%
* COc1cc2c(cc1OC)[C@@H](c1c(O)[nH]c(=O)n(-c3ccc(C)c(C)c3)c1=O)NCC2 | 2%
* O=C1Nc2cc(Cl)ccc2/C1=C/c1cccc2[nH]ccc12 | < 0%
* O=C1Nc2ccccc2C(=O)N2c3ccccc3C[C@@H]12 | 20%
* CN(C)CCn1cnc2c1c(=O)[nH]c(=O)n2Cc1ccccc1 | 11%
